Data provenance: patent US20260125477A1

Response (RU) values, listed per item
STUDY_SYSTEM: T1, human B7-H2/ICOSLG protein, with His tag (human, UniProt O75144 19-258, limits assumed)
T1 construct: Bought protein
T1 sequence (looked up): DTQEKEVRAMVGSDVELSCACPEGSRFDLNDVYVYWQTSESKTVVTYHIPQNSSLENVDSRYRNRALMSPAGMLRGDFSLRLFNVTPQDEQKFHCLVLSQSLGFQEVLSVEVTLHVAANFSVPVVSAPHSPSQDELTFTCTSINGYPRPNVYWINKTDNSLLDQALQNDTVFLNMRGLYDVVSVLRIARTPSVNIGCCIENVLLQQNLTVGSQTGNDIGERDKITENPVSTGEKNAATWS
EXPERIMENT: SPR (Biacore T200), antibody captured on Protein A chip, response at 200 nM antigen
QUANTITY_MEASURED: Response (RU)

BINDER	UNIT_ABBREVIATION	RESULT
10D7 (antibody, human IgG1, kappa, V domains shown, also called 10D7-WT; Ab10D7) VH: QVQLVQSGPGLVKPSETLSLTCTVSGGSISRSSYYWGWIRQPPGKGLEWIGNIFYAGSTYYNPSLKSRVTISVDTSKNQFSLKLSSVTAADTAVYYCARRITGTTGWFDPWGQGTLVTVSS VL: DIQLTQSPSSLSASVGDRVTITCRASQGIRNDLGWYQQKPGKAPKLLIYAASTLQSGVPSRFSGSGSGTDFTLTISSLQPEDFATYYCLQDYNYPRTFGQGTKVEIKR	RU	-0.1
6B5 (antibody, human IgG1, kappa, V domains shown, also called 6B5-WT; Ab6B5) VH: QVQLVESGPGLVKPSQTLSLTCTVSDGSISSGGYYWSWIRQHPGKGLEWIGYIYYSGGTYYSPSLKSRVTISVDTSKNQFSLKLTSVTAADTAVYYCARRAGYSSSFDSWGQGILVTVSS VL: EIVLTQSPLSLPVTPGEPASISCRSSQSLLYSNGYTYLDWYLQKPGQSPQFLIYLGFNRASGVPDRFSGSGSGTDFTLKISRVEAEDVGVYYCMQGLQTPYTFGQGTKLEIKR	RU	0.9
10F5 (antibody, human IgG1, kappa, V domains shown, also called Ab10F5) VH: QVQLVQSGAEVKKPGSSVKVSCKASGGTFSSQAISWVRQAPGQGLEWMGRIIPMLGIGDYAQSFQGRVTITADKSTSTAYLEVSSLGSEDTAVYYCAREGIAALGTNYYYGMDVWGQGTAVTVSS VL: EIVMTQSPSSVSASVGDRVTITCRASQGISRWLAWYQQKPGKAPKLLIYVASSLQSGVPSRFSGSGSGTDFTLTISSLQPEDFATYYCQQANSFPFTFGPGTKVDIRR	RU	0.9
Enoblituzumab (antibody, human IgG1, kappa, V domains shown, Humanized anti-B7-H3 antibody of MacroGenics with optimised Fc, used as the positive control; also called AbEno; enoblituzumab-IgG1-Mut) VH: EVQLVESGGGLVQPGGSLRLSCAASGFTFSSFGMHWVRQAPGKGLEWVAYISSDSSAIYYADTVKGRFTISRDNAKNSLYLQMNSLRDEDTAVYYCGRGRENIYYGSRLDYWGQGTTVTVSS VL: DIQLTQSPSFLSASVGDRVTITCKASQNVDTNVAWYQQKPGKAPKALIYSASYRYSGVPSRFSGSGSGTDFTLTISSLQPEDFATYYCQQYNNYPFTFGQGTKLEIKR	RU	-2
